Data provenance: ChEMBL document CHEMBL1275335

Test system: Chlamydia pneumoniae
method_notes: Antibacterial activity against Chlamydia pneumoniae CWL029 infected in human HL cells assessed as inhibition of bacterial growth at 10 uM after 72 hrs by TR-FIA method
Type: functional
measured_quantity: inhibition at 10 µM

Answered cases to consult:
molecule	tgt	inhibition at 10 µM
O=C(Nc1cccc(-c2nc3ccccc3[nH]2)c1)c1ccco1	Chlamydia pneumoniae	45%
Cc1cccc(C(=O)Nc2cccc(-c3nc4ccccc4[nH]3)c2)c1	Chlamydia pneumoniae	98%
O=C(Nc1cccc(-c2nc3ccccc3[nH]2)c1)c1ccoc1	Chlamydia pneumoniae	78%
COc1cccc(C(=O)Nc2cccc(-c3nc4ccccc4[nH]3)c2)c1	Chlamydia pneumoniae	98%

Note to self: inhibition at 10 µM recorded for COc1ccc2[nH]c(-c3cccc(NC(=O)c4cccs4)c3)nc2c1 was 74%

Note to self: inhibition at 10 µM recorded for COc1ccc2[nH]c(-c3cccc(NC(=O)c4ccsc4)c3)nc2c1 was 73%

###

Property: inhibition at 10 µM; scope: individual compounds
System: Chlamydia pneumoniae
method_notes: Antibacterial activity against Chlamydia pneumoniae CWL029 infected in human HL cells assessed as inhibition of bacterial growth at 10 uM after 72 hrs by TR-FIA method
Type: functional
// units = %; emit number, no label

Answered cases to consult:
molecule	units_text	inhibition at 10 µM
O=C(Nc1cccc(-c2nc3ccccc3[nH]2)c1)c1cccs1	%	89
O=C(Nc1cccc(-c2nc3ccccc3[nH]2)c1)c1cccc(C(F)(F)F)c1	%	99
O=C(Nc1cccc(-c2nc3cc(Cl)ccc3[nH]2)c1)c1cccs1	%	89

Note to self: inhibition at 10 µM recorded for O=C(Nc1cccc(-c2ncc[nH]2)c1)c1cccs1 was 0

Note to self: inhibition at 10 µM recorded for O=C(Nc1cccc(-c2nc3ccccc3[nH]2)c1)C1CCCCC1 was 100

###

method_notes: Cytotoxicity against human HL cells assessed as cell viability at 10 uM after 72 hrs by celltiter-glo analysis
Type: cell-based
experimental_conditions: read-out: Activity
measured_quantity: viability at 72 h, 10 µM (%)
// units = %; emit number, no label

Answered cases to consult:
molecule	viability at 72 h, 10 µM, %
CC(=O)Nc1cccc(-c2nc3ccccc3[nH]2)c1	100
O=C(Nc1cccc(-c2nc3ccccc3[nH]2)c1)c1ccccc1C(F)(F)F	80

Here is the next item to consider.
Note to self: viability at 72 h, 10 µM recorded for COc1ccccc1C(=O)Nc1cccc(-c2nc3ccccc3[nH]2)c1 was 107
